- target: Solute carrier organic anion transporter family member 1B1 (Homo sapiens)
- Sequence (Q9Y6L6 whole entry): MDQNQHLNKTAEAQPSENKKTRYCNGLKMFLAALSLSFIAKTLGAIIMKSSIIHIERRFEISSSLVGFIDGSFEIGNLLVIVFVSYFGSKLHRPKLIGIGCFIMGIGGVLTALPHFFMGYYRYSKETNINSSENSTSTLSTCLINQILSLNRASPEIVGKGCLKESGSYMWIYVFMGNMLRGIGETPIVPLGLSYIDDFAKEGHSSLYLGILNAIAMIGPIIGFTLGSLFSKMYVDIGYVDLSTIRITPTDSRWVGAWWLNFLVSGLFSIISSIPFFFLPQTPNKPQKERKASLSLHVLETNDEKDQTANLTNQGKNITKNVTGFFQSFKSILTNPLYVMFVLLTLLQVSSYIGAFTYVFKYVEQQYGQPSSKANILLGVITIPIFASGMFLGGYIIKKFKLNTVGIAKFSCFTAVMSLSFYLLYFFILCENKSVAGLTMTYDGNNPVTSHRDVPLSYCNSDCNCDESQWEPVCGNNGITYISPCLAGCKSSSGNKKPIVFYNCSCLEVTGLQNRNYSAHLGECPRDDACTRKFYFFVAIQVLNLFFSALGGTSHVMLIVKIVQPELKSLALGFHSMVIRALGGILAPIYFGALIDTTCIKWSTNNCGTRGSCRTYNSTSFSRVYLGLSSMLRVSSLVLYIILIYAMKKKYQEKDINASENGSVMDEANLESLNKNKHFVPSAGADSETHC
- conditions used: chinese hamster, cho, 10 µM
The label is T for residual activity below 50% and F for residual activity equal to or exceeding 50%.

These solved cases illustrate the format of a correct answer.
1) CO[C@H]1/C=C/O[C@@]2(C)Oc3c(C)c(O)c4c(O)c(c5c(nc6cc(C)ccn65)c4c3C2=O)NC(=O)/C(C)=C\C=C\[C@H](C)[C@H](O)[C@@H](C)[C@@H](O)[C@@H](C)[C@H](OC(C)=O)[C@@H]1C : F
2) O=c1c(O)c(-c2ccc(O)c(O)c2)oc2cc(O)cc(O)c12 : T
3) C[C@]12CC[C@H](O)C[C@@H]1CC[C@@H]1[C@@H]2CC[C@]2(C)C(=O)CC[C@@H]12 [EPIANDROSTERONE] : F

Incoming: Could you please tell me whether residual activity recorded for C=CC1=C(C)/C(=C/c2[nH]c(Cc3[nH]c(/C=C4\NC(=O)C(C)=C4C=C)c(C)c3CCC(=O)O)c(CCC(=O)O)c2C)NC1=O is less than 50%?
Outgoing: T

Incoming: Could you please tell me whether residual activity recorded for Clc1ccc(Cl)cc1 is less than 50%?
Outgoing: F

Incoming: Could you please tell me whether residual activity recorded for COc1ccc2c(c1)OC[C@@H](Cc1ccc(OC)c(OC)c1)[C@H]2O [TETRAHYDROSAPPANONE A TRIMETHYL ETHER] is less than 50%?
Outgoing: F

Incoming: Could you please tell me whether residual activity recorded for COc1cc(C/C=C/c2ccccc2)c(OC)cc1O is less than 50%?
Outgoing: T
